Assay: chemical genetic growth profiling, strain panel (AID 1159580);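 further: tested at 20 µM; growth read once vehicle control cultures reached saturation at 30 °C; 1 = growth at the plate median or of vehicle wells; lower values mean less growth of the strain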
Conditions: S. cerevisiae deletion strains, growth OD, locus YNL233W, strain BNI4
In all, about 5,500 compounds went through this assay and about 2,000 (36%) were called active. Roughly 18% stayed inconclusive and do not appear here. No stated cut-off is given here; in the data, active means normalized growth mostly below about 0.91 (no sharp cut-off); inconclusive means no clear call, values can overlap the other calls; inactive means mostly above about 0.92. Some of the results follow.
Mark one answer only. Choices: 1 (active), -1 (inactive)

{"columns": ["compound", "cat"],
 "data": [
  ["N#C/C(=C\\c1cccc(O)c1)C(=O)O", -1],
  ["CNCCCN1c2ccccc2CCc2ccccc21", -1],
  ["CC(CN1c2ccccc2Sc2ccccc21)N(C)C (centres undefined)", -1],
  ["C[C@H](N)[C@H](O)c1ccccc1", -1],
  ["NNCCc1ccccc1", -1]
]}

Record request — test call for CC(=O)N=c1sc(S(N)(=O)=O)nn1C -1

Record request — test call for COC(=O)c1c(C)cc(OC(=O)c2c(C)c(Cl)c(O)c(C=O)c2O)c(C)c1O -1

Record request — test call for Cc1cc(O)c(C)c2c1C(=O)Oc1c(C)c(O)c(C(=O)O)c(C)c1O2 -1

Record request — test call for N[C@@H]1[C@@H](O)[C@H](O)[C@@H](CO)O[C@H]1O -1

Record request — test call for Cc1cccc(Nc2ccncc2S(=O)(=O)NC(=O)NC(C)C)c1 -1

Record request — test call for Cc1cc(O)c(C=O)c2c1C(=O)Oc1c(COC(=O)/C=C/C(=O)O)c(O)c(C(=O)O)c(C)c1O2 -1

Record request — test call for C[C@@H](N)[C@@H](O)c1ccccc1 -1

Record request — test call for COc1cc(C)c(C(=O)Oc2cc(C)c(C(=O)O)c(O)c2C)c(OC)c1C -1

Record request — test call for CN(C(=O)CN(CCO)CC(=O)N(C)C(C)(C)Cc1ccccc1)C(C)(C)Cc1ccccc1 -1

Record request — test call for C=C[C@H]1CN2CC[C@H]1C[C@@H]2[C@H](O)c1ccnc2ccccc12 -1

Record request — test call for CCN(CC)C(C)CN1c2ccccc2Sc2ccccc21 (centres undefined) -1

Record request — test call for CC(CN1c2ccccc2Sc2cccnc21)N(C)C (centres undefined) -1

Record request — test call for CC(=O)Nc1nnc(S(N)(=O)=O)s1 1

Record request — test call for CC(CN(C)C)CN1c2ccccc2CCc2ccccc21 (centres undefined) -1

Record request — test call for CC(CN(C)C)CN1c2ccccc2Sc2ccccc21 (centres undefined) -1

Record request — test call for CC(=O)OCC(=O)[C@@]1(O)[C@H](OC(C)=O)CC2C3CCC4=CC(=O)C=C[C@]4(C)[C@@]3(F)[C@@H](O)C[C@@]21C (some centres undefined) -1

Reference source for all entries: PubChem BioAssay AID1159580
